# Tested on: HBV
# TEST: HBV efficacy assay: viral DNA in HepG2.2.15 supernatant by qPCR
# Format: cell-based
# CONDITION CONTEXT: Hepatitis B virus, 144 h; HepG2.2.15 cells, 6 days, viral DNA in supernatant by qPCR; read-out: HBV Efficacy Assay EC50
QUANTITY NAME: EC50 (nM)
One number for each entry, in nM.

The observed EC50 for "Nc1ccn([C@@H]2CS[C@H](CO)O2)c(=O)n1" when tested with HBV stands at 140

The reported numbers originate from patent US12595280B2.
